- Tested on: human monoclonal antibody CRJA
- Assay type: binding
Returns t if the recorded Binding of CRJA (10 μg/ml) to looped/cyclic peptide (PEPSCAN-ELISA) is greater than or equal to 100, and f otherwise.

CLDALESIMTTKSVS ... t

# input Item `YKSLKGACKLKLCGV` with Binding of CRJA (10 μg/ml) to looped/cyclic peptide (PEPSCAN-ELISA) of 100 or above?
# output f

# input Item `GPDGNVLIPEMQSSL` with Binding of CRJA (10 μg/ml) to looped/cyclic peptide (PEPSCAN-ELISA) of 100 or above?
# output t

# input Item `IPLVHPLADPSTVFK` with Binding of CRJA (10 μg/ml) to looped/cyclic peptide (PEPSCAN-ELISA) of 100 or above?
# output t

* * *

- System: human monoclonal antibody CRJA
- Assay type: binding
Binary call on Binding of CRJA to looped/cyclic peptide (PEPSCAN-ELISA signal) with cut-off 90: strictly below means Fulfilled, and equality or higher means Not fulfilled.

Field: example entries. Status: answers known.
HNQVSGVDLGLPNWG ... Fulfilled
KDGDEAEDFVEVHLP ... Fulfilled
FVEVHLPDVHNQVSG ... Not fulfilled
HLPDVHNQVSGVDLG ... Fulfilled
GDEAEDFVEVHLPDV ... Fulfilled

Turning now to a further record.
# input Lab note: Binding of CRJA to looped/cyclic peptide (PEPSCAN-ELISA signal) threshold 90. Does this sequence come in strictly under it? `ADPSTVFKDGDEAED`
# output Not fulfilled

* * *

- Test system: human monoclonal antibody CRJB
- Type: binding
In this section, each of the sequences is paired with its reported Binding of CRJB to linear peptide (PEPSCAN-ELISA signal).
Give the figure by itself; no unit, no explanation.

A selection of reference data follows.
PNNLVVEDEGCTNLS ... 107
WKMAGDPRYEESLHN ... 101
GLYKSLKGACKLKLC ... 129
NGIILGPDGNVLIPE ... 146
SLHNPYPDYRWLRTV ... 111

# input Any idea what Binding of CRJB to linear peptide (PEPSCAN-ELISA signal) came out for `DRSLHSRVFPSGKCS` on human monoclonal antibody CRJB?
# output 142

# input Any idea what Binding of CRJB to linear peptide (PEPSCAN-ELISA signal) came out for `KVGYILAIKMNGFTC` on human monoclonal antibody CRJB?
# output 118

# input Any idea what Binding of CRJB to linear peptide (PEPSCAN-ELISA signal) came out for `GYVTTTFKRKHFRPT` on human monoclonal antibody CRJB?
# output 123

# input Any idea what Binding of CRJB to linear peptide (PEPSCAN-ELISA signal) came out for `FPSGKCSGVAVSSTY` on human monoclonal antibody CRJB?
# output 134

* * *

- Test system: human monoclonal antibody CRJA
- Format: binding
Returns y if the recorded Binding of CRJA (10 μg/ml) to looped/cyclic peptide (PEPSCAN-ELISA) is greater than or equal to 90, and n otherwise.

GFGKAYTIFNKTLME ... n
VNLHDFRSDEIEHLV ... n
MELLESSVIPLVHPL ... y
GGRCHPHVNGVFFNG ... y
LKGACKLKLCGVLGL ... n

# input Item `PHVNGVFFNGIILGP` with Binding of CRJA (10 μg/ml) to looped/cyclic peptide (PEPSCAN-ELISA) of 90 or above?
# output y

# input Item `GACKLKLCGVLGLRL` with Binding of CRJA (10 μg/ml) to looped/cyclic peptide (PEPSCAN-ELISA) of 90 or above?
# output n

# input Item `MQSSLLQQHMELLES` with Binding of CRJA (10 μg/ml) to looped/cyclic peptide (PEPSCAN-ELISA) of 90 or above?
# output y

# input Item `WNEILPSKGCLRVGG` with Binding of CRJA (10 μg/ml) to looped/cyclic peptide (PEPSCAN-ELISA) of 90 or above?
# output y

* * *

- System: human monoclonal antibody CRJB
- Assay type: binding
outcome measure: Binding of CRJB to linear peptide (PEPSCAN-ELISA signal)

QSSLLQQHMELLESS ... 114
VNLHDFRSDEIEHLV ... 129
PPDQLVNLHDFRSDE ... 120
LGPDGNVLIPEMQSS ... 134
CTGVVTEAENYTNFV ... 123
LKLCGVLGLRLMDGT ... 145
SYMELKVGYILAIKM ... 123
MTTKSVSFRRLSHLR ... 116

# input Dear colleague, I am looking for the recorded Binding of CRJB to linear peptide (PEPSCAN-ELISA signal) of the following sequence: `PEMQSSLLQQHMELL`
# output 133

# input Dear colleague, I am looking for the recorded Binding of CRJB to linear peptide (PEPSCAN-ELISA signal) of the following sequence: `RCHPHVNGVFFNGII`
# output 141

# input Dear colleague, I am looking for the recorded Binding of CRJB to linear peptide (PEPSCAN-ELISA signal) of the following sequence: `VVEDEGCTNLSGFSY`
# output 107

# input Dear colleague, I am looking for the recorded Binding of CRJB to linear peptide (PEPSCAN-ELISA signal) of the following sequence: `PYPDYRWLRTVKTTK`
# output 93

# input Dear colleague, I am looking for the recorded Binding of CRJB to linear peptide (PEPSCAN-ELISA signal) of the following sequence: `KESLVIISPSVADLD`
# output 117

# input Dear colleague, I am looking for the recorded Binding of CRJB to linear peptide (PEPSCAN-ELISA signal) of the following sequence: `LDPYDRSLHSRVFPS`
# output 142

* * *

- System: human monoclonal antibody CRJA
- Type: binding
Binary call on Binding of human monoclonal antibody CRJA to linear peptide (PEPSCAN-ELISA signal) with cut-off 100: strictly below means class 1, and equality or higher means class 0.

# input Lab note: Binding of human monoclonal antibody CRJA to linear peptide (PEPSCAN-ELISA signal) threshold 100. Does this sequence come in strictly under it? `VFKDGDEAEDFVEVH`
# output class 0

# input Lab note: Binding of human monoclonal antibody CRJA to linear peptide (PEPSCAN-ELISA signal) threshold 100. Does this sequence come in strictly under it? `DVHNQVSGVDLGLPN`
# output class 0

# input Lab note: Binding of human monoclonal antibody CRJA to linear peptide (PEPSCAN-ELISA signal) threshold 100. Does this sequence come in strictly under it? `FKDGDEAEDFVEVHL`
# output class 1

* * *

- System: human monoclonal antibody CRJA
- Format: binding
In this section, each of the sequences is paired with its reported Binding of CRJA to linear peptide (PEPSCAN-ELISA signal).
Give the figure by itself; no unit, no explanation.

A selection of reference data follows.
KMNGFTCTGVVTEAE ... 90
GIILGPDGNVLIPEM ... 107
IMTTKSVSFRRLSHL ... 85
EAENYTNFVGYVTTT ... 62
TEAENYTNFVGYVTT ... 86

# input Dear colleague, I am looking for the recorded Binding of CRJA to linear peptide (PEPSCAN-ELISA signal) of the following sequence: `AYNWKMAGDPRYEES`
# output 90

# input Dear colleague, I am looking for the recorded Binding of CRJA to linear peptide (PEPSCAN-ELISA signal) of the following sequence: `HLRKLVPGFGKAYTI`
# output 116

* * *

- Test system: human monoclonal antibody CRJA
- Format: binding
outcome measure: Binding of CRJA (10 μg/ml) to looped/cyclic peptide (PEPSCAN-ELISA signal)
Give the figure by itself; no unit, no explanation.

A selection of reference data follows.
TTTFKRKHFRPTPDA ... 93
FPSGKCSGVAVSSTY ... 80
RAAYNWKMAGDPRYE ... 86

Next item in the queue.
# input Dear colleague, I am looking for the recorded Binding of CRJA (10 μg/ml) to looped/cyclic peptide (PEPSCAN-ELISA signal) of the following sequence: `ESLVIISPSVADLDP`
# output 118

* * *

In this section, each of the sequences is paired with its reported Binding of CRJB to linear peptide (PEPSCAN-ELISA signal).
- Tested on: human monoclonal antibody CRJB
- Assay type: binding
Give the figure by itself; no unit, no explanation.

A selection of reference data follows.
RSDEIEHLVVEELVR ... 138
RGLYKSLKGACKLKL ... 121
NLSGFSYMELKVGYI ... 115
SRGKRASKGSETCGF ... 93

# input Dear colleague, I am looking for the recorded Binding of CRJB to linear peptide (PEPSCAN-ELISA signal) of the following sequence: `VNGVFFNGIILGPDG`
# output 116

# input Dear colleague, I am looking for the recorded Binding of CRJB to linear peptide (PEPSCAN-ELISA signal) of the following sequence: `ENYTNFVGYVTTTFK`
# output 112
